System: adult spider mites (Tetranychus cinnabarinus)
test.protocol: Test against adult spider mite, spray on bean leaves, mortality after 72 h
Type: in vivo
measurement.context: 1.25 ppm, spray
attribute.measured: Acaricidal activity against adult spider mites (mortality, %)

• CCn1nc(C)c(Cl)c1C(OC(=O)C(C)(C)C)=C(C#N)c1ccc(C(C)(C)C)cc1 [Compound 90.2] = 100
• CCn1nc(C)cc1C(OC(=O)C(C)(C)C)=C(C#N)c1ccc(C(C)(C)C)cc1 [Compound 5.1] = 98
• CCn1nc(C)cc1C(OC(=O)C(C)(C)C)=C(C#N)c1ccc(C(C)(C)C)cc1 [Compound 5.2] = 65
• CCn1nc(C)c(C)c1C(OC(=O)C(C)(C)C)=C(C#N)c1ccc(C(C)(C)C)cc1 [Compound 42.2] = 70
• CCn1nc(C)c(C)c1C(OC(=O)C(C)(C)C)=C(C#N)c1ccc(C(C)(C)C)cc1 [Compound 42.1] = 93

###

This listing pairs molecules with measured mortality at 1.25 ppm.
Test system: adult spider mites (Tetranychus cinnabarinus)
test.protocol: Test against adult spider mite, spray on bean leaves, mortality after 72 h
Assay type: in vivo
measurement.context: Tetranychus cinnabarinus, 1.25 ppm, spray, read-out: Acaricidal activity against adult spider mites (mortality, %)
attribute.measured: mortality at 1.25 ppm

- CCOC(=O)OC(=C(C#N)c1ccc(C(C)(C)C)cc1)c1c(Cl)c(C)nn1CC: 50%
- CCn1nc(C)c(Cl)c1C(OC(=O)C(C)(C)C)=C(C#N)c1ccc(C(C)(C)C)cc1: 100%
- CCn1nc(C)c(C)c1C(OC(=O)C1CC1)=C(C#N)c1ccc(C(C)(C)C)cc1: 97%
- CCOC(=O)OC(=C(C#N)c1ccc(C(C)(C)C)cc1)c1c(C)c(C)nn1CC: 100%
- CCn1nc(C)c(C)c1C(OC(=O)C1CCC1)=C(C#N)c1ccc(C(C)(C)C)cc1: 100%
